test system: proton-gated ion channels (ASIC); assay: Two-electrode voltage clamp in Xenopus laevis oocytes expressing gated ion channels (Xo); assay type: cell-based; conditions: acidic solution (pH<7) activation
quantity.measured: Xo: percent binding data

Hey, can you go through the list below and give me Xo: percent binding data for every item?
1. CN1CC[C@@H]2/C(=N/Nc3ccc([N+](=O)[O-])cc3[N+](=O)[O-])c3ccccc3[C@@H]2C1
2. CN1CCC(O)(/C(=N\Nc2ccc([N+](=O)[O-])cc2[N+](=O)[O-])c2ccccc2)CC1
3. CN1CCC2=C(c3ccccc3)CC[C@@H](NC(=O)c3ccc(O)cc3)[C@H]2C1
4. CCOC(=O)C1=C(Nc2ccccc2)CCN(Cc2ccccc2)C1

*A*
1: < 20%; 2: < 20%; 3: < 20%; 4: <20%

*Q* Report value only: Xo: percent binding data, proton-gated ion channels (ASIC), CN1CC=C(/C(=N\Nc2ccc([N+](=O)[O-])cc2[N+](=O)[O-])c2ccccc2)CC1
*A* < 20%
